Recorded values, source paper PMC10786891.

# SYSTEM UNDER TEST: T1, EsCas13d, nuclease-dead (Eubacterium siraeum, UniProt B0MS50, R295A;H300A;R849A;H854A)
# T1 sequence: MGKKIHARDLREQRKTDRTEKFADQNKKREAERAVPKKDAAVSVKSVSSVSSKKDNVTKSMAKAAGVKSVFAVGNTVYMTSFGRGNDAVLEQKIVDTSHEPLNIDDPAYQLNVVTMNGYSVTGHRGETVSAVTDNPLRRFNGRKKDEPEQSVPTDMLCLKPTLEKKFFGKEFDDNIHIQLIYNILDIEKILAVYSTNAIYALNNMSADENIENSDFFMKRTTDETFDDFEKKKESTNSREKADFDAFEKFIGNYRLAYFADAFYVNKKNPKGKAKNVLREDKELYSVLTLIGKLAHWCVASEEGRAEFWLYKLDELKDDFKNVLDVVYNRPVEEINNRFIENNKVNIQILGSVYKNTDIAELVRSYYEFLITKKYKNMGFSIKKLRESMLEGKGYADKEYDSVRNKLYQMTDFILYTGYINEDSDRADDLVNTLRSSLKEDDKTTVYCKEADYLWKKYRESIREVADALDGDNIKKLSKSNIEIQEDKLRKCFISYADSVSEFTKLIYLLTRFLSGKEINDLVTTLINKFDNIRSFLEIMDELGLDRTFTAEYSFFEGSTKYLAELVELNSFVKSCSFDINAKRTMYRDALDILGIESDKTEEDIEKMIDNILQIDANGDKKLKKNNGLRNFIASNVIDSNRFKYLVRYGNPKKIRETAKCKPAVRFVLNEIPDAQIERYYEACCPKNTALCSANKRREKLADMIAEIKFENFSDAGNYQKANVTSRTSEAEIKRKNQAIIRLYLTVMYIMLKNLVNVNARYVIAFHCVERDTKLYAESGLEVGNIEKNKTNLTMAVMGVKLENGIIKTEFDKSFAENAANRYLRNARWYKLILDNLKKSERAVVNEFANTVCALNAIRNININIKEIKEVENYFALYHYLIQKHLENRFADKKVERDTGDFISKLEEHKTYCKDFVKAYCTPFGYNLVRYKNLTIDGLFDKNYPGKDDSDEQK
# TEST SUMMARY: crRNA (strand 1, pre-loaded); Mg2+; 40 mM Tris-HCl pH 7.5, 150 mM NaCl, 6 mM MgCl2, 1 mM DTT, 0.1% Tween-20, 0.2 mg/ml BSA; 25 C; 10 min per concentration, then washed
# PARTICULARS: tags: His6-TwinStrep-SUMO cleaved; N-terminal SNAP kept (SNAP-Surface 488); label: 3' end held by stalled T7 RNA polymerase
// values below are reported Kd
REPORTED METRIC: Kd (nM)

BINDER	RECORDED VALUE
target 1 insA 3' of 17,insG 3' of 10 (mixed) RNA 1: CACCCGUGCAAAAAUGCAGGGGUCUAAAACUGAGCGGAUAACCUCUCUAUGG RNA 2: GGGAAUGGAUCCACAUCUACGAAUUCGUACCAUAGAAGAGGUUGAUCCGCUCACCGAGAUCGGAAGAGCACACGU	43
target 3 insU 3' of 14,insG 3' of 5 (mixed) RNA 1: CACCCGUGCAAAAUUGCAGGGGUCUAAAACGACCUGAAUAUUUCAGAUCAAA RNA 2: GGGAAUGGAUCCACAUCUACGAAUUCGUUUUUGAUCUGUAAAUAUUCAGGGUCUGCAGAUCGGAAGAGCACACGU	60.5
target 1 insG 3' of 22,insU 3' of 12 (mixed) RNA 1: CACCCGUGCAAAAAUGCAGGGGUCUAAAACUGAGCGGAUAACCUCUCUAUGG RNA 2: GGGAAUGGAUCCACAUCUACGAAUUCGUACGCAUAGAGAGGUUUAUCCGCUCACCGAGAUCGGAAGAGCACACGU	20.5
target 2 MT 5'PFS CAU 3'PFS UAG (mixed) RNA 1: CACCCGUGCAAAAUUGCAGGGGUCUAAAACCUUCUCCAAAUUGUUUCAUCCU RNA 2: GGGAAUGGAUCCACAUCUACGAAUUCCAUAGGAUGAAACAAUUUGGAGAAGUAGAGAUCGGAAGAGCACACGU	5.6
